- tested target: HLA-DRB1*12:02 (Homo sapiens, UniProt P01903+P01911, A100R/A169T/D57E/D86V/F55L/H45Y/I96F/K41T/L162R/M171V/P40S/Q125H/Q178H/Q39Y/Q99D/R42G/S66L/T262R/V114A/V67L/W38E/Y59H/Y61H/Y89S)
- procedure summary: Peptide/HLA-DR binding, competitive ELISA
- test conditions: ratio IC50 of peptide / IC50 of reference peptide TFR 141–155, lower = higher affinity, ratio 20 or less high, 20–100 moderate, three independent experiments
reported property: Relative binding affinity of peptide to HLA-DR molecules DRB1*1202
Output: the number by itself.

Consider the worked cases shown below.
AVLTQLTGLISKWGEISSMIAQKTYS [Peptide 18, SseB overlapping library peptide, residues 171–196] | 4
14: SseB overlapping library peptide, residues 131–150 (KLDKGGLQAIKAALDNDANR) [Peptide 14] | 71
16: SseB overlapping library peptide, residues 151–170 (NTDLMSQGQITIQKMSQELN) [Peptide 16] | 52

# ---- query substance ----
Data request: # Relative binding affinity of peptide to HLA-DR molecules DRB1*1202 lookup, item 12: SseB overlapping library peptide, residues 111–130 (GILIDGMTIDDYMAKYGDHG) [Peptide 12]
Data returned: 105

====

- tested target: HLA-DRB1*07:01 (Homo sapiens, UniProt P01903+P01911, A100R/A102G/A103Q/D57E/D86V/E43K/F76Y/K127E/L162R/M171V/P40G/Q125H/Q99D/R33Q/R42Y/R54Q/S133A/S66F/T210M/V115G/Y107V/Y59L/Y89S)
- test conditions: competitive ELISA; ratio IC50 of peptide / IC50 of reference peptide HA 306–318; lower = higher affinity; ratio 20 or less high, 20–100 moderate; three independent experiments
Some substances, each annotated with its measured Relative binding affinity of peptide to HLA-DR molecules DRB1*0701.

// solved cases for Relative binding affinity of peptide to HLA-DR molecules DRB1*0701 follow
6: SseB overlapping library peptide, residues 51–70 (MVIQAIANNKFIEVQKNAER) [Peptide 6] | 2
7: SseB overlapping library peptide, residues 61–80 (FIEVQKNAERARNTQEKSNE) [Peptide 7] | > 336

# ---- query substance ----
Data request: Sample 3: SseB overlapping library peptide, residues 21–40 (GVSNADTGSQDDLSQQNPFA) [Peptide 3] — what was its Relative binding affinity of peptide to HLA-DR molecules DRB1*0701?
Data returned: > 336

====

- tested target: HLA-DRB1*15:02 (Homo sapiens, UniProt P01903+P01911, V115G)
- Construct: HLA-DR heterodimers were purified from homozygous Epstein–Barr virus B-lymphoblastoid cell lines; host or cells: homozygous EBV B-lymphoblastoid cell line
- procedure summary: Peptide/HLA-DR binding, competitive ELISA
- test conditions: ratio IC50 of peptide / IC50 of reference peptide TFR 607–620, lower = higher affinity, ratio 20 or less high, 20–100 moderate, three independent experiments
reported property: Relative binding affinity of peptide to HLA-DR molecules DRB1*1502

Past entries and their recorded results:
16: SseB overlapping library peptide, residues 151–170 (NTDLMSQGQITIQKMSQELN) [Peptide 16] | > 3 333
11: SseB overlapping library peptide, residues 101–120 (EDVIKYMRDNGILIDGMTID) [Peptide 11] | 37

Turning to the following substance.
Data request: Reported Relative binding affinity of peptide to HLA-DR molecules DRB1*1502 for 5: SseB overlapping library peptide, residues 41–60 (EGYGVLLILLMVIQAIANNK) [Peptide 5] : what is it?
Data returned: > 3 333
